Listed here: items and their measured LD50 at 1 h.
experiment: Orientative acute toxicity in po dosed ICEM:CET (SPF Caw) mouse administered via gavage measured for 60 mins after drug dosing by Irwin's test; type: organism-based; conditions: ICEM:CET (SPF Caw), in vivo
Use mg/kg as the unit, but write only the number.

Some solved cases for reference:
# compound, observation_type, unit_name, reported_measurement
measured = [
    ("CNCCN(C)C1c2ccccc2CCc2ccccc21", "LD50 at 1 h", "mg/kg", 200),
    ("CNC1CN(C2c3ccccc3CCc3ccc(OC)cc32)C1 (configuration not stated)", "LD50 at 1 h", "mg/kg", 200),
    ("CNC1CN(C2c3ccccc3CCc3ccccc32)C1C (configuration not stated)", "LD50 at 1 h", "mg/kg", 400),
    ("NCC1CN(C2c3ccccc3CCc3ccccc32)C1", "LD50 at 1 h", "mg/kg", 400),
    ("c1ccc2c(c1)CCc1ccccc1C2N1CC(n2ccnc2)C1", "LD50 at 1 h", "mg/kg", 200),
]

Please report LD50 at 1 h for the following compound: CNC1CN(C2c3ccccc3COc3ccccc32)C1 (configuration not stated)
200

Please report LD50 at 1 h for the following compound: CN(C)C1CN(C2c3ccccc3CCc3ccc(Cl)cc32)C1 (configuration not stated)
400

Please report LD50 at 1 h for the following compound: CN(C)C1CN(C2c3ccccc3C3(CC3)c3ccccc32)C1
200

Please report LD50 at 1 h for the following compound: CC(C)NC1CN(C2c3ccccc3CCc3ccccc32)C1
200

Please report LD50 at 1 h for the following compound: CN(C)C1CN(C2c3ccccc3COc3ccc(Cl)cc32)C1 (configuration not stated)
100

Please report LD50 at 1 h for the following compound: c1ccc2c(c1)CCc1ccccc1C2N1CCNCC1
50

The reported measurements were obtained from ChEMBL document CHEMBL3227978.
